Species: Rattus norvegicus
Test: Open TG-GATES - Regimen: Single
Assay type: toxicity, organism-based, Sprague-Dawley
Design: regimen Single, gender Male, age 6 weeks
Conditions: in vivo, po, 0 mg/kg, 24 h, tissue Plasma, route gavage, dose level Control
TEST READOUT: K
Write your answer as a measured quantity: the number, then the unit.

Below: 4 molecules and their reported K.
MOLECULE	TEST READOUT	RESULT VALUE
NC1=NC(=O)C(c2ccccc2)O1 (centres undefined)	K	4 meq/L
Nc1c2c(nc3ccccc13)CCCC2	K	4.6 meq/L
CN(C)CCC(c1ccc(Cl)cc1)c1ccccn1 (centres undefined)	K	4.3 meq/L
CN1C(=O)CCS(=O)(=O)C1c1ccc(Cl)cc1 (centres undefined)	K	4.3 meq/L

Give recorded K. "CNC(=C[N+](=O)[O-])NCCSCc1ccc(CN(C)C)o1" 4.1 meq/L

Give recorded K. "O=C(OC[C@H]1O[C@@H](OC(=O)c2cc(O)c(O)c(OC(=O)c3cc(O)c(O)c(O)c3)c2)[C@H](OC(=O)c2cc(O)c(O)c(OC(=O)c3cc(O)c(O)c(O)c3)c2)[C@@H](OC(=O)c2cc(O)c(O)c(OC(=O)c3cc(O)c(O)c(O)c3)c2)[C@@H]1OC(=O)c1cc(O)c(O)c(OC(=O)c2cc(O)c(O)c(O)c2)c1)c1cc(O)c(O)c(OC(=O)c2cc(O)c(O)c(O)c2)c1" 4.7 meq/L

Give recorded K. CS(=O)(=O)O.Cc1ccc(NC(=O)c2ccc(CN3CCN(C)CC3)cc2)cc1Nc1nccc(-c2cccnc2)n1 [IMATINIB MESYLATE] 4.2 meq/L

Give recorded K. "CCCc1cc(=O)[nH]c(=S)[nH]1" 5 meq/L

Give recorded K. "Cc1nnc2n1-c1ccc(Cl)cc1C(c1ccccc1Cl)=NC2" 4.2 meq/L

Give recorded K. "CC(C)NNC(=O)c1ccncc1" 4.4 meq/L

Give recorded K. "COC(=O)C1=C(C)NC(C)=C(C(=O)OC)C1c1ccccc1[N+](=O)[O-]" 4.3 meq/L

Give recorded K. "CN/C(=N/CCSCc1nc[nH]c1C)NC#N" 4 meq/L

Give recorded K. "CCOc1ccc(NC(C)=O)cc1" 4.2 meq/L

Give recorded K. "Brc1ccccc1" 4.2 meq/L

----------
Species on record: Rattus norvegicus
Assay: Open TG-GATES - Regimen: Daily Repeat
Format: toxicity, organism-based, Sprague-Dawley
Set-up: regimen Daily Repeat, gender Male, age 6 weeks
Conditions: in vivo, po, 0 mg/kg, […], tissue Plasma, route gavage, dose level Control, time 14 day
TEST READOUT: RALB (g/dL)
The response must be a number in g/dL with no trailing unit.

Below: 4 molecules and their reported RALB.
MOLECULE	TEST READOUT	SCALE UNIT	RESULT VALUE
CCOc1ccc(NC(C)=O)cc1 [PHENACETIN]	RALB	g/dL	2.7
CN1C(=O)CCS(=O)(=O)C1c1ccc(Cl)cc1 (stereo not given) [CHLORMEZANONE]	RALB	g/dL	2.8
CC(C)NNC(=O)c1ccncc1 [IPRONIAZID]	RALB	g/dL	3
CN(C)CCC(c1ccc(Cl)cc1)c1ccccn1 (stereo not given) [CHLORPHENIRAMINE]	RALB	g/dL	2.8

Give recorded RALB. CNC(=C[N+](=O)[O-])NCCSCc1ccc(CN(C)C)o1 [RANITIDINE] 3.5

----------
Species: Rattus norvegicus
Experiment: Open TG-GATES - Regimen: Single
Type: toxicity, organism-based, Sprague-Dawley
Design: regimen Single, gender Male, age 6 weeks
Settings: in vivo, po, 0 mg/kg, 6 h, tissue Blood, route gavage, dose level Control
Please note: T applies when WBC is 100 x10_2/uL or greater, and F applies otherwise.

Example entries and their recorded answers appear below.
MOLECULE	CLASS LABEL
CC(C)NNC(=O)c1ccncc1	F
CCCc1cc(=O)[nH]c(=S)[nH]1	T
CN/C(=N/CCSCc1nc[nH]c1C)NC#N	T

Identify whether the reported WBC of the following molecule is 100 x10_2/uL or greater: "Brc1ccccc1" F

Identify whether the reported WBC of the following molecule is 100 x10_2/uL or greater: CS(=O)(=O)O.Cc1ccc(NC(=O)c2ccc(CN3CCN(C)CC3)cc2)cc1Nc1nccc(-c2cccnc2)n1 [IMATINIB MESYLATE] T

----------
Each item that follows carries a reported Ht.
Species on record: Rattus norvegicus
Assay: Open TG-GATES - Regimen: Single
Type: toxicity, organism-based, Sprague-Dawley
Design: regimen Single, gender Male, age 6 weeks
Settings: in vivo, po, 1000 mg/kg, 9 h, tissue Blood, route gavage, dose level High
The response must be a number in % with no trailing unit.

Below: 3 compounds and their reported Ht.
COMPOUND	SCALE UNIT	Ht
CN/C(=N/CCSCc1nc[nH]c1C)NC#N [CIMETIDINE]	%	37.4
O=C(OC[C@H]1O[C@@H](OC(=O)c2cc(O)c(O)c(OC(=O)c3cc(O)c(O)c(O)c3)c2)[C@H](OC(=O)c2cc(O)c(O)c(OC(=O)c3cc(O)c(O)c(O)c3)c2)[C@@H](OC(=O)c2cc(O)c(O)c(OC(=O)c3cc(O)c(O)c(O)c3)c2)[C@@H]1OC(=O)c1cc(O)c(O)c(OC(=O)c2cc(O)c(O)c(O)c2)c1)c1cc(O)c(O)c(OC(=O)c2cc(O)c(O)c(O)c2)c1 [TANNIC ACID]	%	39.1
Cc1nnc2n1-c1ccc(Cl)cc1C(c1ccccc1Cl)=NC2 [TRIAZOLAM]	%	40.5

Give recorded Ht. COC(=O)C1=C(C)NC(C)=C(C(=O)OC)C1c1ccccc1[N+](=O)[O-] [NIFEDIPINE] 39.8

Give recorded Ht. CNC(=C[N+](=O)[O-])NCCSCc1ccc(CN(C)C)o1 [RANITIDINE] 38

----------
Species: Rattus norvegicus
Test: Open TG-GATES - Regimen: Single
Format: toxicity, organism-based, Sprague-Dawley
Set-up: regimen Single, gender Male, age 6 weeks
Conditions: in vivo, po, 0 mg/kg, 24 h, tissue Blood, route gavage, dose level Control
Decision: RBC beneath 600 x10_4/ul gives rule met; RBC meeting or exceeding 600 x10_4/ul gives rule not met.

MOLECULE	CLASS LABEL
CN/C(=N/CCSCc1nc[nH]c1C)NC#N [CIMETIDINE]	rule not met
O=C(OC[C@H]1O[C@@H](OC(=O)c2cc(O)c(O)c(OC(=O)c3cc(O)c(O)c(O)c3)c2)[C@H](OC(=O)c2cc(O)c(O)c(OC(=O)c3cc(O)c(O)c(O)c3)c2)[C@@H](OC(=O)c2cc(O)c(O)c(OC(=O)c3cc(O)c(O)c(O)c3)c2)[C@@H]1OC(=O)c1cc(O)c(O)c(OC(=O)c2cc(O)c(O)c(O)c2)c1)c1cc(O)c(O)c(OC(=O)c2cc(O)c(O)c(O)c2)c1 [TANNIC ACID]	rule met
Cc1nnc2n1-c1ccc(Cl)cc1C(c1ccccc1Cl)=NC2 [TRIAZOLAM]	rule not met
CN(C)CCC(c1ccc(Cl)cc1)c1ccccn1 (stereo not drawn) [CHLORPHENIRAMINE]	rule not met
CN1C(=O)CCS(=O)(=O)C1c1ccc(Cl)cc1 (stereo not drawn) [CHLORMEZANONE]	rule not met

Below 600 x10_4/ul on RBC? Entry CC(C)NNC(=O)c1ccncc1 [IPRONIAZID] rule not met

----------
Species: Rattus norvegicus
Assay: Open TG-GATES - Regimen: Daily Repeat
Type: toxicity, organism-based, Sprague-Dawley
Parameters: regimen Daily Repeat, gender Male, age 6 weeks
Conditions: in vivo, po, 1000 mg/kg, […], tissue Plasma, route gavage, dose level High, time 7 day
Please note: 1 applies when DBIL is 0.04 mg/dL or greater, and 0 applies otherwise.

Example entries and their recorded answers appear below.
CNC(=C[N+](=O)[O-])NCCSCc1ccc(CN(C)C)o1 1
COC(=O)C1=C(C)NC(C)=C(C(=O)OC)C1c1ccccc1[N+](=O)[O-] 0
O=C(OC[C@H]1O[C@@H](OC(=O)c2cc(O)c(O)c(OC(=O)c3cc(O)c(O)c(O)c3)c2)[C@H](OC(=O)c2cc(O)c(O)c(OC(=O)c3cc(O)c(O)c(O)c3)c2)[C@@H](OC(=O)c2cc(O)c(O)c(OC(=O)c3cc(O)c(O)c(O)c3)c2)[C@@H]1OC(=O)c1cc(O)c(O)c(OC(=O)c2cc(O)c(O)c(O)c2)c1)c1cc(O)c(O)c(OC(=O)c2cc(O)c(O)c(O)c2)c1 0

Identify whether the reported DBIL of the following molecule is 0.04 mg/dL or greater: "Cc1nnc2n1-c1ccc(Cl)cc1C(c1ccccc1Cl)=NC2" 0

Identify whether the reported DBIL of the following molecule is 0.04 mg/dL or greater: "CN/C(=N/CCSCc1nc[nH]c1C)NC#N" 1

Hello, the source for this data is ChEMBL document CHEMBL3885861, in case you need it.
